measurement.description: PK parameters in male mice (Table 9)
Type: in vivo
test.settings: PO 3 mg/kg
Kindly state Cmax for each of the entries shown.
The reply should contain only the number, in ng/mL.

Query: # get_value(readout='Cmax', item= CN(c1ccc(C#N)c(Cl)c1)[C@H]1CC[C@H](NC(=O)c2ccc(N3CC(CN4CCN(c5ccc6c(c5)C(=O)N(C5CCC(=O)NC5=O)C6=O)CC4)C3)cc2)CC1 (stereo partly shown) )
Reply: 92.2

Query: # get_value(readout='Cmax', item= CN(c1ccc(C#N)c(Cl)c1)[C@H]1CC[C@H](NC(=O)c2ccc(N3CC(N4CCN(c5ccc6c(c5)C(=O)N(C5CCC(=O)NC5=O)C6=O)CC4)C3)cc2)CC1 (stereo partly shown) )
Reply: 484

Query: # get_value(readout='Cmax', item= CN(c1ccc(C#N)c(Cl)c1)[C@H]1CC[C@H](NC(=O)c2ccc(N3CCN(C4CCN(c5ccc6c(c5)C(=O)N(C5CCC(=O)NC5=O)C6=O)CC4)CC3)cc2)CC1 (stereo partly shown) )
Reply: 256.1

Query: # get_value(readout='Cmax', item= N#Cc1ccc(O[C@H]2CC[C@H](NC(=O)c3ccc(N4CCC(N5CCN(c6ccc7c(c6)C(=O)N(C6CCC(=O)NC6=O)C7=O)CC5)CC4)cc3)CC2)cc1Cl (stereo partly shown) )
Reply: 207

Query: # get_value(readout='Cmax', item= CN(c1ccc(C#N)c(Cl)c1)[C@H]1CC[C@H](NC(=O)c2ccc(N3CCC(CN4CCN(c5ccc6c(c5)C(=O)N(C5CCC(=O)NC5=O)C6=O)CC4)CC3)cc2)CC1 (stereo partly shown) )
Reply: 45.0

Query: # get_value(readout='Cmax', item= CN(c1ccc(C#N)c(Cl)c1)[C@H]1CC[C@H](NC(=O)c2ccc(N3CCC(N4CCN(c5ccc6c(c5)C(=O)N(C5CCC(=O)NC5=O)C6=O)CC4)CC3)cc2)CC1 (stereo partly shown) )
Reply: 251

Query: # get_value(readout='Cmax', item= CN(c1ccc(C#N)c(Cl)c1)[C@H]1CC[C@H](NC(=O)c2ccc(N3CCN(CC4CN(c5ccc6c(c5)C(=O)N(C5CCC(=O)NC5=O)C6=O)C4)CC3)cc2)CC1 (stereo partly shown) )
Reply: 127
